- Test system: Liver
- measurement-protocol: Half life in mouse liver microsomes at 10 uM by LC-MS/MS analysis
- Type: ADME, microsome
endpoint-name: t1/2 (h)
Numeric only. Scale: h

The following compounds have reported results that may help.
>  <compound>
COc1ccc(-n2nc3c4cnc(OC)cc4[nH]cc-3c2=O)cc1

>  <assayed-system>
Liver

>  <unit-annotation>
h

>  <test-result>
12

$$$$
>  <compound>
[2H]C([2H])([2H])Oc1ccccc1-n1nc2c3ccc(OC)cc3[nH]cc-2c1=O

>  <assayed-system>
Liver

>  <unit-annotation>
h

>  <test-result>
10.9

$$$$

## Input Read off the recorded t1/2 for [2H]C([2H])([2H])Oc1ccccc1-n1nc2c3cc(Cl)ccc3[nH]cc-2c1=O
## Output 16.6

## Input Read off the recorded t1/2 for COc1ccc(-n2nc3c4cc(Cl)ccc4[nH]cc-3c2=O)cc1
## Output 1.9

###

- measurement-protocol: Cmax in Wistar rat brain at 10 mg/kg, ip administered as single dose measured at 5 to 720 mins post dose by HPLC-MS/MS analysis
- Format: ADME, organism-based
- Parameters: dose 10 mg/kg, route intraperitoneal
Measured log10(Cmax), listed per entry.
Recorded Cmax (log10, ng/g)

The following molecules have reported results that may help.
>  <compound>
COc1ccc(-n2nc3c4ccc(OC)cc4[nH]cc-3c2=O)cc1

>  <endpoint-name>
log10(Cmax)

>  <test-result>
2.55

$$$$
>  <compound>
[2H]C([2H])([2H])Oc1ccc2c3nn(-c4ccc(OC)nc4)c(=O)c-3c[nH]c2c1

>  <endpoint-name>
log10(Cmax)

>  <test-result>
2.33

$$$$
>  <compound>
[2H]C([2H])([2H])Oc1ccccc1-n1nc2c3cc(Cl)ccc3[nH]cc-2c1=O

>  <endpoint-name>
log10(Cmax)

>  <test-result>
1.82

$$$$
>  <compound>
[2H]C([2H])([2H])Oc1ccc(-n2nc3c4ccc(OC)cc4[nH]cc-3c2=O)cc1

>  <endpoint-name>
log10(Cmax)

>  <test-result>
2.77

$$$$
>  <compound>
[2H]C([2H])([2H])Oc1ccc(-n2nc3c4ccc(OC([2H])([2H])[2H])cc4[nH]cc-3c2=O)cc1

>  <endpoint-name>
log10(Cmax)

>  <test-result>
2.73

$$$$

## Input Read off the recorded log10(Cmax) for [2H]C([2H])([2H])Oc1ccc2c3nn(-c4ccc(OC)cc4)c(=O)c-3c[nH]c2c1
## Output 2.82

###

- measurement-protocol: Metabolic stability in mouse liver microsomes assessed as parent compound remaining at 10 uM after 60 mins by LC-MS analysis
- Assay type: ADME, microsome
- experimental-conditions: read-out: Stability
endpoint-name: remaining at 1 h, 10 µM (%)
Numeric only. Scale: %

>  <compound>
[2H]C([2H])([2H])Oc1cccc(-n2nc3c4ccc(OC)cc4[nH]cc-3c2=O)c1

>  <test-result>
91.6

$$$$

## Input Read off the recorded remaining at 1 h, 10 µM for [2H]C([2H])([2H])Oc1ccc(-n2nc3c4ccc(Br)cc4[nH]cc-3c2=O)cn1
## Output 98.4

## Input Read off the recorded remaining at 1 h, 10 µM for [2H]C([2H])([2H])Oc1ccc(-n2nc3c4ccc(Br)cc4[nH]cc-3c2=O)cc1
## Output 73.8

## Input Read off the recorded remaining at 1 h, 10 µM for [2H]C([2H])([2H])Oc1cccc(-n2nc3c4ccc(OC([2H])([2H])[2H])cc4[nH]cc-3c2=O)c1
## Output 90.5

## Input Read off the recorded remaining at 1 h, 10 µM for COc1ccc2c3nn(-c4ccc(OC)nc4)c(=O)c-3c[nH]c2c1
## Output 74.8

## Input Read off the recorded remaining at 1 h, 10 µM for [2H]C([2H])([2H])Oc1ccc(-n2nc3c4ccc(OC)cc4[nH]cc-3c2=O)cc1
## Output 92.8

## Input Read off the recorded remaining at 1 h, 10 µM for COc1cccc(-n2nc3c4cc(Cl)ccc4[nH]cc-3c2=O)c1
## Output 59.8

## Input Read off the recorded remaining at 1 h, 10 µM for [2H]C([2H])([2H])Oc1ccccc1-n1nc2c3cc(Cl)ccc3[nH]cc-2c1=O
## Output 94.9

## Input Read off the recorded remaining at 1 h, 10 µM for [2H]C([2H])([2H])Oc1ccc(-n2nc3c4cc(Cl)ccc4[nH]cc-3c2=O)cn1
## Output 85.1

###

- measurement-protocol: Metabolic stability in human liver microsomes assessed as parent compound remaining at 10 uM after 60 mins by LC-MS analysis
- Format: ADME, microsome
- experimental-conditions: read-out: Stability
endpoint-name: remaining at 1 h, 10 µM (%)
Numeric only. Scale: %

>  <compound>
COc1ccc(-n2nc3c4ccc(Br)cc4[nH]cc-3c2=O)cn1

>  <unit-annotation>
%

>  <remaining at 1 h, 10 µM>
93.4

$$$$
>  <compound>
COc1ccc(-n2nc3c4ccc(OC)cc4[nH]cc-3c2=O)cc1

>  <unit-annotation>
%

>  <remaining at 1 h, 10 µM>
86.1

$$$$

## Input Read off the recorded remaining at 1 h, 10 µM for [2H]C([2H])([2H])Oc1ccc2c3nn(-c4ccccc4OC([2H])([2H])[2H])c(=O)c-3c[nH]c2c1
## Output 90.5

## Input Read off the recorded remaining at 1 h, 10 µM for [2H]C([2H])([2H])Oc1ccc(-n2nc3c4cc(Cl)ccc4[nH]cc-3c2=O)cc1
## Output 92.2

## Input Read off the recorded remaining at 1 h, 10 µM for [2H]C([2H])([2H])Oc1ccccc1-n1nc2c3ccc(OC)cc3[nH]cc-2c1=O
## Output 79.9

## Input Read off the recorded remaining at 1 h, 10 µM for [2H]C([2H])([2H])Oc1cccc(-n2nc3c4ccc(OC)cc4[nH]cc-3c2=O)c1
## Output 81.3

## Input Read off the recorded remaining at 1 h, 10 µM for COc1ccc(-n2nc3c4ccc(Br)cc4[nH]cc-3c2=O)cc1
## Output 66.9

## Input Read off the recorded remaining at 1 h, 10 µM for COc1ccc2c3nn(-c4ccc(OC)nc4)c(=O)c-3c[nH]c2c1
## Output 92.8

## Input Read off the recorded remaining at 1 h, 10 µM for [2H]C([2H])([2H])Oc1cccc(-n2nc3c4ccc(Br)cc4[nH]cc-3c2=O)c1
## Output 63.5

## Input Read off the recorded remaining at 1 h, 10 µM for [2H]C([2H])([2H])Oc1ccc2c3nn(-c4ccc(OC)nc4)c(=O)c-3c[nH]c2c1
## Output 92.3

## Input Read off the recorded remaining at 1 h, 10 µM for [2H]C([2H])([2H])Oc1ccc(-n2nc3c4ccc(OC([2H])([2H])[2H])cc4[nH]cc-3c2=O)cc1
## Output 91.5

## Input Read off the recorded remaining at 1 h, 10 µM for COc1ccc(-n2nc3c4cc(Cl)ccc4[nH]cc-3c2=O)cn1
## Output 91.6

## Input Read off the recorded remaining at 1 h, 10 µM for [2H]C([2H])([2H])Oc1ccc2c3nn(-c4ccc(OC)cc4)c(=O)c-3c[nH]c2c1
## Output 92

###

- measurement-protocol: Metabolic stability in mouse liver microsomes assessed as parent compound remaining at 10 uM after 60 mins by LC-MS analysis
- Assay type: ADME, microsome
- experimental-conditions: read-out: Stability
Measured remaining at 1 h, 10 µM, listed per entry.

The following molecules have reported results that may help.
>  <compound>
[2H]C([2H])([2H])Oc1ccc(-n2nc3c4ccc(OC)cc4[nH]cc-3c2=O)cn1

>  <remaining at 1 h, 10 µM>
92.4%

$$$$
>  <compound>
[2H]C([2H])([2H])Oc1ccc(-n2nc3c4cc(Cl)ccc4[nH]cc-3c2=O)cc1

>  <remaining at 1 h, 10 µM>
85.5%

$$$$
>  <compound>
[2H]C([2H])([2H])Oc1ccc2c3nn(-c4ccc(OC([2H])([2H])[2H])nc4)c(=O)c-3c[nH]c2c1

>  <remaining at 1 h, 10 µM>
92.5%

$$$$
>  <compound>
COc1ccc(-n2nc3c4ccc(Br)cc4[nH]cc-3c2=O)cn1

>  <remaining at 1 h, 10 µM>
93.1%

$$$$

## Input Read off the recorded remaining at 1 h, 10 µM for [2H]C([2H])([2H])Oc1cccc(-n2nc3c4ccc(Br)cc4[nH]cc-3c2=O)c1
## Output 79.5%

## Input Read off the recorded remaining at 1 h, 10 µM for COc1ccc(-n2nc3c4cc(Cl)ccc4[nH]cc-3c2=O)cn1
## Output 85.6%

## Input Read off the recorded remaining at 1 h, 10 µM for [2H]C([2H])([2H])Oc1ccc2c3nn(-c4ccc(OC)nc4)c(=O)c-3c[nH]c2c1
## Output 91.4%

## Input Read off the recorded remaining at 1 h, 10 µM for COc1ccc(-n2nc3c4ccc(OC)cc4[nH]cc-3c2=O)cc1
## Output 80.3%
